System name: human cloned dopamine D4.2 receptors expressed in CHO-cells (Homo sapiens, UniProt P21917, DEL265-296)
Construct: expressed in transfected cells; host or cells: CHO cells
Sequence (P21917 with tags, fused parts or gaps DEL265-296): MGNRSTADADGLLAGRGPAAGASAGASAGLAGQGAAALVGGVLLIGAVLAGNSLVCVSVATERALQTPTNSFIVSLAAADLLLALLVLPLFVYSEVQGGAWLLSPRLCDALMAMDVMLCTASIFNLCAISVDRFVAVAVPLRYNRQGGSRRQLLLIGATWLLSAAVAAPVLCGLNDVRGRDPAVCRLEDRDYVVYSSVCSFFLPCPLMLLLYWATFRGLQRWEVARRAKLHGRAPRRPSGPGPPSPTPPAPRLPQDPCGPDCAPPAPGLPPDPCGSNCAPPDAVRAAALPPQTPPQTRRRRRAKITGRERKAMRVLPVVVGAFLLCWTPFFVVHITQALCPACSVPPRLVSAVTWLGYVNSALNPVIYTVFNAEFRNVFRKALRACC
Assay info: Inhibition of the binding of [3H]YM-09151-2 to human dopamine D4.2 receptors
Where a name gives a salt, the structure may show the parent alone.
Metric name: pIC50
// returns pIC50 (minus log10 of molar concentration), number only

Input: What value of pIC50 has been recorded for this entry: O=S1(=O)c2cccc3cccc(c23)N1CCCN1CC=C(c2ccc3[nH]ccc3c2)CC1 [Compound 1c, Hydrochloride]
Output: 9.14

---

System name: human cloned dopamine D4.2 receptors expressed in CHO-cells (Homo sapiens, UniProt P21917, DEL265-296)
Construct: expressed in transfected cells; host or cells: CHO cells
Assay info: Inhibition of the binding of [3H]YM-09151-2 to human dopamine D4.2 receptors
Reported conditions: [3H]YM-09151-2 0.06 nM, membranes of CHO cells; read-out: D4-bind. IC50
Text: Method modified from NEN Life Science Products, Inc., technical data certificate PC2533-10/96.
Counter-ions that a name gives are not always drawn.
Metric name: IC50 (nM)
Dear colleague, please return just the value in nM, with no unit written.

Input: What value of IC50 has been recorded for this entry: O=S1(=O)c2cccc3cccc(c23)N1CCCN1CCN(c2ccc3[nH]ccc3c2)CC1 [Compound 1a, Hydrochloride]
Output: 1.9
